- System: recombinant human HDAC1 (Homo sapiens (Human), UniProt Q13547)
- Sequence (Q13547 whole entry): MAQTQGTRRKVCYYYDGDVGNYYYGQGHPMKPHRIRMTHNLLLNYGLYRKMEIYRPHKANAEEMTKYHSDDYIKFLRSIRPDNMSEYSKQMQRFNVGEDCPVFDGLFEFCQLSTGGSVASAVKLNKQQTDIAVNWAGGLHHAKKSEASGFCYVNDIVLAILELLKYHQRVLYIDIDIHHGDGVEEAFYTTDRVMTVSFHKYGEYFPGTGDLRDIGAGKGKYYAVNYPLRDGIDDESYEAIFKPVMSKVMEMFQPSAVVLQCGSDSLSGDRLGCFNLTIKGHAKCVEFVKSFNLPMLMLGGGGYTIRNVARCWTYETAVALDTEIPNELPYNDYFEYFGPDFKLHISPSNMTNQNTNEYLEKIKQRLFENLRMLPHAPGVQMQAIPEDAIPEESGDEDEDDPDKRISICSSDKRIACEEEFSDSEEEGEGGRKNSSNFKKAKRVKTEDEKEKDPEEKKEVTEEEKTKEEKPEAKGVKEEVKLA
- Experimental protocol: Enzymatic screening, HDAC1 inhibition (fluorogenic FdL_G substrate)
pIC50: −log10 of the molar value.
Observation type: pIC50

- Chemical string: "Nc1nc2cc(-c3cn(Cc4ccc(-c5nnc(C(F)F)o5)cn4)cn3)ccc2s1"
  System: "recombinant human HDAC1 (Homo sapiens (Human), UniProt Q13547)"
  pIC50: "< 3.00"
- Chemical string: "CN1CC(=O)Nc2cc(-c3cn(Cc4c(F)cc(-c5nnc(C(F)F)o5)cc4F)nn3)ccc2C1"
  System: "recombinant human HDAC1 (Homo sapiens (Human), UniProt Q13547)"
  pIC50: "< 3.70"
- Chemical string: "Nc1ccc(-c2cn([C@@H](CO)c3ccc(-c4nnc(C(F)F)o4)cc3)nn2)cn1"
  System: "recombinant human HDAC1 (Homo sapiens (Human), UniProt Q13547)"
  pIC50: "< 3.00"

We now examine a further molecule.
For this molecule ( O=C(Nc1cc(-c2nnn(Cc3c(F)cc(-c4nnc(C(F)F)o4)cc3F)n2)ccc1O)N1CCOCC1 ), measured pIC50 is < 3.70
